- Target Desc: T1, phosphorylated Flag-GBP1 (GBP1pS156) purified from THP-1ΔGBP1+Tet-Flag-GBP1 WT cells (human, UniProt P32455 1-592, phosphoserine at 156)
- T1 chain: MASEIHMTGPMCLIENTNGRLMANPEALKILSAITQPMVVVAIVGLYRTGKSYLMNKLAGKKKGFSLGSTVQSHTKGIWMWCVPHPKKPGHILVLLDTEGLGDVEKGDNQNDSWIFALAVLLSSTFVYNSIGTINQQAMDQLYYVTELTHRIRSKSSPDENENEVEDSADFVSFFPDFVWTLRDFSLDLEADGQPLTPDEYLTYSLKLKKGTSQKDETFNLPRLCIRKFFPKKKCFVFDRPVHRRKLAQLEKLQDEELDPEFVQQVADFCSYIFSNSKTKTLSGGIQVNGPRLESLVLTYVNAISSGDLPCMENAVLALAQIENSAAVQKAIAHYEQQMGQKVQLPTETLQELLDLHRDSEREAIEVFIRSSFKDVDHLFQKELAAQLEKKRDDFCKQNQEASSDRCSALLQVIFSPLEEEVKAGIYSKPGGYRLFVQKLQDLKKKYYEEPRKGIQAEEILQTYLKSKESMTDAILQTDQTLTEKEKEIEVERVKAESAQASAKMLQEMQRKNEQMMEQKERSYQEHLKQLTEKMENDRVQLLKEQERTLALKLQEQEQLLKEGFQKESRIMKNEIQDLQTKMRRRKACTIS
- Method Notes: GBP1 phosphorylated at S156; semi-quantitative co-IP
Listed next: entries and their corresponding pKd.
Friendly reminder that pKd comes from taking -log10 of the concentration in mol/L.

Use these answered entries as a reference point.
| Binder | Measured Value |
| --- | --- |
| HA-14-3-3ε (natural protein) MDDREDLVYQAKLAEQAERYDEMVESMKKVAGMDVELTVEERNLLSVAYKNVIGARRASWRIISSIEQKEENKGGEDKLKMIREYRQMVETELKLICCDILDVLDKHLIPAANTGESKVFYYKMKGDYHRYLAEFATGNDRKEAAENSLVAYKAASDIAMTELPPTHPIRLGLALNFSVFYYEILNSPDRACRLAKAAFDDAIAELDTLSEESYKDSTLIMQLLRDNLTLWTSDMQGDGEEQNKEALQDVEDENQ | 5.73 |
| HA-14-3-3γ (natural protein) MVDREQLVQKARLAEQAERYDDMAAAMKNVTELNEPLSNEERNLLSVAYKNVVGARRSSWRVISSIEQKTSADGNEKKIEMVRAYREKIEKELEAVCQDVLSLLDNYLIKNCSETQYESKVFYLKMKGDYYRYLAEVATGEKRATVVESSEKAYSEAHEISKEHMQPTHPIRLGLALNYSVFYYEIQNAPEQACHLAKTAFDDAIAELDTLNEDSYKDSTLIMQLLRDNLTLWTSDQQDDDGGEGNN | 5.38 |

Input line: Find the recorded pKd belonging to HA-14-3-3η (natural protein) MGDREQLLQRARLAEQAERYDDMASAMKAVTELNEPLSNEDRNLLSVAYKNVVGARRSSWRVISSIEQKTMADGNEKKLEKVKAYREKIEKELETVCNDVLSLLDKFLIKNCNDFQYESKVFYLKMKGDYYRYLAEVASGEKKNSVVEASEAAYKEAFEISKEQMQPTHPIRLGLALNFSVFYYEIQNAPEQACLLAKQAFDDAIAELDTLNEDSYKDSTLIMQLLRDNLTLWTSDQQDEEAGEGN and report it.
Output line: 5.19
